Test system: NCI-H522 lung
Allowed answers: label 1 for active, label 0 for inactive

Worked set:
COC(=O)[C@@H](C)C[C@H](Cc1ccccc1)NC(=O)c1csc([C@@H](C[C@H](C(C)C)N(C)C(=O)[C@H](C)NC(=O)[C@H]2CCCCN2C)OC(C)=O)n1    label 1
Cc1cccc2c(N)c3ccccc3nc12    label 0
COc1cc2c3c(n(CCCN=[N+]=[N-])c(=O)c2cc1OC)-c1ccc(N(C)C)cc1C3=O    label 0
O=C1NCCS(=O)(=O)/C1=C\C=C\c1cccc(C(F)(F)F)c1    label 0
COc1cc(/C=C/C(=O)c2cccnc2Nc2ccc(F)cc2)cc(OC)c1OC    label 0
COc1ccc(-c2nn(-c3cccc(NC(=O)c4ccc(N5CCOCC5)c(C(F)(F)F)c4)c3)cc2-c2ccncc2)cc1Cl    label 0
CC1(C)OC(=O)C=C([O-])O1.CC1(C)OC(=O)C=C([O-])O1.CC[O-].CC[O-].[Ti+4]    label 0
Cc1cc(OCc2nnc3n2N=C(c2ccc(Cl)cc2Cl)CS3)ccc1Cl    label 0

With those in mind, consider the next molecule.
Query: recorded result category for CC(C)COC(=O)c1ccc2[nH]c(O)c(C=Nc3ccc(S(N)(=O)=O)cc3)c2c1 in this test
label 0
